Target: Free fatty acid receptor 4 (Homo sapiens) (UniProt Q5NUL3)
Sequence (whole entry): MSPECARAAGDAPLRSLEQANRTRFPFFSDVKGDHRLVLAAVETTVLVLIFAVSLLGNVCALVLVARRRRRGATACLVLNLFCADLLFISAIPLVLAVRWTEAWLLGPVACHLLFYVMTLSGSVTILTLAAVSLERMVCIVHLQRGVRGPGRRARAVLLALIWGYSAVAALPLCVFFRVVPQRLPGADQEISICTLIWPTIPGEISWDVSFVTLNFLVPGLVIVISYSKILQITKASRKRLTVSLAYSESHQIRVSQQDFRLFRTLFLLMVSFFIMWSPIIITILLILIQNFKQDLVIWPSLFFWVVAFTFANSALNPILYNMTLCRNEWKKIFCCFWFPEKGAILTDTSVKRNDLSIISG
Experiment: Agonist activity at C-terminal YFP-tagged human FFA4 expressed in HEK293 cells in presence of coelentrazine h by BRET based beta-arrestin-2 interaction assay relative to 100 uM […]
Assay type: cell-based
reportedEndpoint: Emax (%)

Cc1ccc(Oc2cc(F)cc(N3Cc4ccccc4S3(=O)=O)c2)cc1: 91
O=S1(=O)c2ccccc2CN1c1cccc(Oc2ccccn2)c1: 102
O=S1(=O)c2ccccc2CN1c1cc(F)cc(Oc2ccccn2)c1: 98

I = COc1ccc(S(=O)(=O)Nc2c(C)cc(C)cc2C)cc1
II = N#CCc1cccc(Oc2cc(F)cc(N3Cc4ccccc4S3(=O)=O)c2)c1
III = O=S(=O)(Nc1cc(F)cc(Oc2cccnc2)c1)c1ccc(F)cc1
Ranking field: Emax; order: falling. Labels, ranked as asked.
I, II, III

A = O=S1(=O)c2ccccc2CN1c1cccc(Oc2ccccc2)c1
B = O=S(=O)(Nc1ccc(Oc2ccccc2)cc1)c1ccc(F)cc1
// compare measured Emax, left A , right B , return larger Respond with the label that goes with your answer.
A
